target: GSK3B (Homo sapiens, UniProt P49841); test: NanoBRET cellular target engagement assay, Nanoluc-GSK3B in HEK293 cells; assay type: cell-based; design: expressed in transfected cells; details: NanoBRET GSK3β IC50, HEK293 cells, tracer K-8, 2 hours, 37° C
Sequence (P49841 whole entry): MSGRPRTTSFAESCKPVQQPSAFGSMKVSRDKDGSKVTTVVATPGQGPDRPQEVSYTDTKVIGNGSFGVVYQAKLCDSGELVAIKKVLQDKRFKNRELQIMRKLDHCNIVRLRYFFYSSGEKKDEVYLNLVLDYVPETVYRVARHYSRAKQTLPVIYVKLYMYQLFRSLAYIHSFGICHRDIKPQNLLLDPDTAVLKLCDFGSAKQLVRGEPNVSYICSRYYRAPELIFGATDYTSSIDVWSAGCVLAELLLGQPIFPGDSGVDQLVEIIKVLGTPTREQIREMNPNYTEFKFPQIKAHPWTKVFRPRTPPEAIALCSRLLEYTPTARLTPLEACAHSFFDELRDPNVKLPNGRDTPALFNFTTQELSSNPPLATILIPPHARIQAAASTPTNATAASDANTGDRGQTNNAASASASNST
Field: label. Allowed values: condition met (IC50 < 300 nM) or condition not met (IC50 >= 300 nM).

Given "CNCc1cncc(NC(=O)c2c(N)ncn(-c3c(C)cc(C(F)F)cc3C)c2=O)c1" , is recorded IC50 strictly lower than 300 nM? condition not met

Confirm or reject: IC50 of CCNCc1cccc(NC(=O)c2c(N)ncn(-c3c(C)cc(C(F)F)cc3Cl)c2=O)c1 (atropisomer, axis not shown) lies strictly below 300 nM condition met

Given COCc1cc(Cl)c(-n2cnc(N)c(C(=O)Nc3cncc([C@H](N)CC(F)F)c3)c2=O)c(Cl)c1 (single isomer, unassigned) , is recorded IC50 strictly lower than 300 nM? condition met

Is the reported IC50 for CCOc1cc(Cl)c(-n2cnc(N)c(C(=O)Nc3cncc(C(N)CC(F)F)c3)c2=O)c(Cl)c1 (single isomer, unassigned) strictly below 300 nM? condition met

Report whether reported IC50 is lower than 300 nM (strictly) for CCOc1cc(C)c(-n2cnc(N)c(C(=O)Nc3cncc(C4CCC(C)N4)c3)c2=O)c(C)c1 (single isomer, unassigned) [Example 92] condition not met

Regarding "Nc1ncn(-c2c(Cl)cc(OC(F)F)cc2Cl)c(=O)c1C(=O)Nc1cncc([C@@H]2CCCCN2)c1" , kindly confirm whether its IC50 is beneath 300 nM. condition not met

Report whether reported IC50 is lower than 300 nM (strictly) for "Nc1ncn(-c2c(Cl)cncc2Cl)c(=O)c1C(=O)Nc1cncc([C@H]2CCCCN2)c1" condition met

Bench note: check whether Nc1ncn(-c2c(Cl)cccc2Cl)c(=O)c1C(=O)Nc1cccc(C2CCCN2)c1F (single isomer, unassigned) [Example 167] shows IC50 below 300 nM condition not met

Could you please tell me whether IC50 recorded for "Nc1ncn(-c2c(Cl)cc(C(F)F)cc2Cl)c(=O)c1C(=O)Nc1cncc([C@@H]2CCCN2)c1" is less than 300 nM? condition not met

Would you kindly verify if IC50 of "CCNCc1cncc(NC(=O)c2c(N)ncn(-c3c(Cl)cc(-c4cnco4)cc3Cl)c2=O)c1" is strictly less than 300 nM? condition not met

Does the reported IC50 of COc1cc(Cl)c(-n2cnc(N)c(C(=O)Nc3cncc4c3CCC43CCCN3)c2=O)c(Cl)c1 (stereo not drawn) stay below 300 nM? condition met

Given the entry "CNCCc1c(NC(=O)c2c(N)ncn(-c3c(C)cccc3Cl)c2=O)cccc1OC" , would its reported IC50 be below 300 nM? condition not met

Determine if "CCC[C@@H](N)c1cncc(NC(=O)c2c(N)ncn(-c3c(C)cc(COC)cc3C)c2=O)c1" shows IC50 strictly lower than 300 nM. condition met

Given COc1c(NC(=O)c2c(N)ncn(-c3c(Cl)cccc3Cl)c2=O)cccc1C1CCCN1 (single isomer, unassigned) , is recorded IC50 strictly lower than 300 nM? condition met

IC50 strictly < 300 nM for this compound? C[C@H](N)c1cncc(NC(=O)c2c(N)ncn(-c3c(Cl)cc(C#N)cc3Cl)c2=O)c1 (single isomer, unassigned) condition met

Hi there! Is IC50 for Cc1cc(CCF)cc(C)c1-n1cnc(N)c(C(=O)Nc2cncc(C(C)N)c2)c1=O (single isomer, unassigned) below 300 nM, do you know? condition met

Consider the compound COc1cc(Cl)c(-n2cnc(N)c(C(=O)Nc3cncc(C(N)CC(F)F)c3)c2=O)c(Cl)c1 (single isomer, unassigned) [Example 85] . Is its IC50 strictly less than 300 nM? condition not met

Please determine if "COc1cc(Cl)c(-n2cnc(N)c(C(=O)Nc3cncc([C@@H]4CCCCN4)c3)c2=O)c(Cl)c1" is below 300 nM in terms of IC50. condition met

Does this compound meet the criterion IC50 < 300 nM? Cc1cc([C@@H](C)F)cc(C)c1-n1cnc(N)c(C(=O)Nc2cncc([C@H]3CCCCN3)c2)c1=O (single isomer, unassigned) [Example 184] condition met

Hello, I'm reviewing records and need to know if IC50 of COCc1cc(C)c(-n2cnc(N)c(C(=O)Nc3cncc4c3CCC4(C)N)c2=O)c(C)c1 (single isomer, unassigned) is below 300 nM. Could you check? condition met

Quick check: IC50 of C#CCC(N)c1cncc(NC(=O)c2c(N)ncn(-c3c(Cl)cc(OCC)cc3Cl)c2=O)c1 (single isomer, unassigned) [Example 151] under 300 nM? condition not met

Take the compound "Cc1cc(C(F)(F)F)cc(C)c1-n1cnc(N)c(C(=O)Nc2cncc([C@H]3CCCCN3)c2)c1=O" and say whether its IC50 is less than 300 nM. condition met

Just wondering, is IC50 of "NCc1cncc(NC(=O)c2c(N)ncn(-c3c(Cl)cc(C(F)(F)F)cc3Cl)c2=O)c1" below 300 nM? condition met

Given "CCOc1cc(Cl)c(-n2cnc(N)c(C(=O)Nc3cncc(CNCCOC)c3)c2=O)c(Cl)c1" , is recorded IC50 strictly lower than 300 nM? condition not met

In the record for Cc1cc(C(F)CF)cc(C)c1-n1cnc(N)c(C(=O)Nc2cncc(C(C)N)c2)c1=O (single isomer, unassigned) , is IC50 less than 300 nM? condition met

I wonder whether CNCc1cncc(NC(=O)c2c(N)ncn(-c3c(Cl)cc(C(F)CF)cc3Cl)c2=O)c1 (single isomer, unassigned) [Example 116] has IC50 below 300 nM. Can you tell? condition met
